As shown below, each of these compounds has a reported IC50 value.
# Target under test: recombinant full-length USP7 (Homo sapiens, UniProt Q93009)
# Construct: A 25 μl reaction volume containing recombinant full-length USP7 (62 pM)
# Sequence (Q93009 whole entry): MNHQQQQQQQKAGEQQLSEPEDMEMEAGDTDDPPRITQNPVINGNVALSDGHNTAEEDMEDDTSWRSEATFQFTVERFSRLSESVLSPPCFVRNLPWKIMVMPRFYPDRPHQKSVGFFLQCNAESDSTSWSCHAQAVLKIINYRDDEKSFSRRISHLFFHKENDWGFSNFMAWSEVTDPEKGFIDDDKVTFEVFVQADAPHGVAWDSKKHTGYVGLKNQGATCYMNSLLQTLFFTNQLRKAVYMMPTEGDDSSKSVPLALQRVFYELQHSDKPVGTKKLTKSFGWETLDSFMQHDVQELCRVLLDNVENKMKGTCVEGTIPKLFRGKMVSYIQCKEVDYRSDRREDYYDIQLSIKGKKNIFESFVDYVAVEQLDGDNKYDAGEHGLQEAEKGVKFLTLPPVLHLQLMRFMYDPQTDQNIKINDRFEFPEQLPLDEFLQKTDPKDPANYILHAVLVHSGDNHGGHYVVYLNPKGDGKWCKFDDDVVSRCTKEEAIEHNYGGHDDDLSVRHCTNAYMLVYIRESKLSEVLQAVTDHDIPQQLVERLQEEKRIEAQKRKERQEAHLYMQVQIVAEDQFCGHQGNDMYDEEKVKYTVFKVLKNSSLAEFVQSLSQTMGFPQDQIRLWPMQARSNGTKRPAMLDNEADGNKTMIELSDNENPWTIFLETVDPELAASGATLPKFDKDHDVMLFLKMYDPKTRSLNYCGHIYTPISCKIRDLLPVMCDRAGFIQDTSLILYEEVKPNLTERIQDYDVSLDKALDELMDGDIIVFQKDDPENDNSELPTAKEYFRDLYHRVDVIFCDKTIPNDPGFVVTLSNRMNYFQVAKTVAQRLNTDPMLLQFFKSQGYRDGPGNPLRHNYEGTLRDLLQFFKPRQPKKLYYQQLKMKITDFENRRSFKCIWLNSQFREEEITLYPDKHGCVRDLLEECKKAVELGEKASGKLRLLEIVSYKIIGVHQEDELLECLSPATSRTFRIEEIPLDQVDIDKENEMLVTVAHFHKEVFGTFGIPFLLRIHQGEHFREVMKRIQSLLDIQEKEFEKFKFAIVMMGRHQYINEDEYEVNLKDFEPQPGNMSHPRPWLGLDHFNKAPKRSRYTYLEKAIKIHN
# Test: USP7-mediated ubiquitin-rhodamine cleavage assay
# Assay type: biochemical
# Condition label: recombinant full-length USP7 62 pM; ubiquitin-rhodamine 100 nM; 30-minute incubation with compound, 1 hour reaction at room temperature; read-out: Potency: USP7 IC50
# Description: In the case of the USP7 deubiquitylating enzyme, the IC50 of an USP7 inhibiting compound is the concentration of the compound that inhibits 50% of the activity observed in a USP7-mediated ubiquitin-rhodamine cleavage assay. For the USP7 inhibitors disclosed herein, their potency was measured using the following test method. […]
Counter-ions that a name gives are not always drawn.

Compound	Target under test	IC50
Cc1cc(Cl)cc(-c2ccnc3ccsc23)c1OC1CCN(C)CC1	recombinant full-length USP7 (Homo sapiens, UniProt Q93009)	10000 to 30000 nM
Cc1cc(Cl)cc(-c2ncnc3cc(CN4C(=O)c5ccccc5C4=O)sc23)c1OC1CCNCC1	recombinant full-length USP7 (Homo sapiens, UniProt Q93009)	< 1000 nM

[ask] Give IC50 for Cc1cc(Cl)cc(-c2ccnc3cc(CN4C(=O)CCCC4=O)sc23)c1O[C@H]1CCCNC1
[reply] < 1000 nM

[ask] Give IC50 for Cc1cc(Cl)cc(-c2ncnc3cc(CN4C(=O)CCC4=O)sc23)c1O[C@H]1CC[C@H](C)NC1 [Example 338, dihydrochloride]
[reply] < 1000 nM

[ask] Give IC50 for Cc1cc(Cl)cc(-c2ccnc3cc(CO)sc23)c1O[C@@H]1CCC[C@H]1N
[reply] 10000 to 30000 nM

[ask] Give IC50 for Cc1cc(Cl)cc(-c2ccnc3cc(CN4C(=O)CCC4=O)sc23)c1O[C@@H]1CNC[C@@H]1N=[N+]=[N-]
[reply] < 1000 nM

[ask] Give IC50 for Cc1cc(Cl)cc(-c2ccnc3cc(CO)sc23)c1OCC1(C#N)CNC1
[reply] < 1000 nM

[ask] Give IC50 for Cc1cc(Cl)cc(-c2ncnc3cc(CN4C(=O)C5C(C4=O)C5(C)C)sc23)c1O[C@H]1CCCN[C@H]1C (stereo partly drawn)
[reply] < 1000 nM

[ask] Give IC50 for Cc1cc(Cl)cc(-c2ccnc3cc(CN4C(=O)CCC4=O)sc23)c1O[C@@H]1CN[C@@H](C(F)F)C1
[reply] 1000 to 10000 nM

[ask] Give IC50 for Cc1cc(Cl)cc(-c2ccnc3cc(CO)sc23)c1OCC1CNC1
[reply] 1000 to 10000 nM

[ask] Give IC50 for O=C(O)C(F)(F)F.[2H]C1([2H])C(=O)N(Cc2cc3nccc(-c4cc(Cl)cc(C)c4O[C@@H]4CNC[C@@H]4F)c3s2)C(=O)C1([2H])[2H]
[reply] < 1000 nM

[ask] Give IC50 for Cc1cc(Cl)cc(-c2ccnc3cc(Cn4c(=O)ccn(CC(F)F)c4=O)sc23)c1O[C@H]1CCCNC1
[reply] < 1000 nM

[ask] Give IC50 for Cc1cc(Cl)cc(-c2ccnc3cc(CN4C(=O)C5CC5C4=O)sc23)c1O[C@@H]1C[C@H]2CN[C@@H]1C2 (stereo partly drawn)
[reply] < 1000 nM

[ask] Give IC50 for CCC(O)c1cc2nccc(-c3cc(Cl)cc(C)c3OCC3CCNCC3)c2s1 (stereo not drawn)
[reply] 10000 to 30000 nM

[ask] Give IC50 for Cc1cc(Cl)cc(-c2ccnc3cc(CO)sc23)c1O[C@@H]1CN[C@@H](C)C1
[reply] 10000 to 30000 nM

[ask] Give IC50 for Cc1cc(Cl)cc(-c2ccnc3cc(Cn4c(=O)ccn(CC(F)(F)F)c4=O)sc23)c1O[C@H]1C[C@H](N)C1
[reply] < 1000 nM

[ask] Give IC50 for Cc1cc(Cl)cc(-c2ccnc3cc(CN4C(=O)CCC4=O)sc23)c1OCC1(C#N)CNC1
[reply] < 1000 nM

[ask] Give IC50 for Cc1cc(C#N)cc(-c2ncnc3ccsc23)c1OCC1(C)CNC1
[reply] 10000 to 30000 nM

[ask] Give IC50 for CO[C@@H]1CNC[C@@H]1Oc1c(C)cc(Cl)cc1-c1ccnc2cc(CO)sc12
[reply] 10000 to 30000 nM

[ask] Give IC50 for Cc1cc(Cl)cc(-c2ccnc3cc(Cn4c(=O)ccn(C(C)(C)C)c4=O)sc23)c1O[C@H]1CCCNC1
[reply] < 1000 nM
